- Assayed target: IMP-1 (Serratia marcescens)
- Sequence (P52699 whole entry, looked up): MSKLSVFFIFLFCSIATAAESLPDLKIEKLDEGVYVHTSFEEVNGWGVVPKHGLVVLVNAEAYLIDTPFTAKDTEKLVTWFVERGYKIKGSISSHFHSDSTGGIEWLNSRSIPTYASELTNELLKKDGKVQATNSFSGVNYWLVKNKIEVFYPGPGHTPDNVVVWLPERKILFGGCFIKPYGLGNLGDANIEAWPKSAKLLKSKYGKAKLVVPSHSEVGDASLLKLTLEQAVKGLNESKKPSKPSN
- Assay notes: biochemical
- Format: biochemical
- Assay context: fluorescence assay with CCF2-FA substrate; read-out: IMP-1 IC50
pIC50: −log10 of the molar value.
Recorded pIC50 determines the label; the label ranges are class 0 (below 6), class 1 (6 to below 8), class 2 (8 or more)

# count of solved cases: 3
NS(=O)(=O)c1cccc(-c2cncc(F)c2)c1-c1nn[nH]n1
class 1
N#Cc1cncc(-c2cccc(S(N)(=O)=O)c2-c2nnn[nH]2)c1
class 0
NS(=O)(=O)c1c(C(F)(F)F)ccc(-c2ccc(C3CN(C4CCNCC4)C3)cc2)c1-c1nnn[nH]1
class 2

Data request: Tag the class for NS(=O)(=O)c1cccc(C2=CCS(=O)(=O)CC2)c1-c1nnn[nH]1
Data returned: class 0

Data request: Tag the class for NS(=O)(=O)c1nccc(-c2ccc3[nH]nc(C(F)(F)F)c3c2)c1-c1nn[nH]n1
Data returned: class 1

Data request: Tag the class for NS(=O)(=O)c1ccc(-c2cccc(S(N)(=O)=O)c2-c2nn[nH]n2)cc1
Data returned: class 1

Data request: Tag the class for NS(=O)(=O)c1cccc(-c2cnc(C3(O)CCC3)s2)c1-c1nn[nH]n1
Data returned: class 0

Data request: Tag the class for NS(=O)(=O)c1c(C(F)(F)F)ccc(-c2ccc(C3CCN(C4CNC4)CC3)cc2)c1-c1nnn[nH]1
Data returned: class 2
